Listing of entries alongside the reported CC50 at 72 h.
Measurement protocol: Cytotoxicity against human TZM-bl cells incubated for 3 days by XTT assay
Type: cell-based
Conditions: TZM-bl cells

Compound | Value comparator | CC50 at 72 h, µM
Cc1ccc(-c2ccc(C(=O)NC(CN(C)C)c3nc(C)c(CO)s3)[nH]2)cc1F (stereo not drawn) | > | 40
CNCC(NC(=O)c1ccc(-c2ccc(Cl)c(F)c2)[nH]1)c1nc(C)c(CO)s1 (stereo in doubt; 42A) | = | 20.6
Cc1nc(C(CCN(C)C)NC(=O)c2ccc(-c3ccc(F)c(Cl)c3)[nH]2)sc1CO (stereo in doubt; 68A) | = | 21.3
Cc1nc(C(CN(C)C)NC(=O)c2ccc(-c3ccc(Cl)cc3)[nH]2)sc1CO (stereo not drawn) | > | 40
Cc1cc(-c2ccc(C(=O)NC(CCN(C)C)c3nc(C)c(CO)s3)[nH]2)ccc1F (stereo in doubt; 69A) | = | 23.7
NCC(NC(=O)c1ccc(-c2cc(F)c(Cl)c(F)c2)[nH]1)c1ncc(CO)s1 (stereo in doubt) | = | 39.5
Cc1nc(C(CN(C)C)NC(=O)c2ccc(-c3ccc(Cl)c(F)c3)[nH]2)sc1CO (stereo in doubt; 45A) | > | 40
Cc1nc(C(CCN)NC(=O)c2ccc(-c3ccc(F)c(Cl)c3)[nH]2)sc1CO (stereo in doubt; 62A) | = | 25.5
